# Test system: HL-1
# assay notes: cardiomyocyte survival under oxidative or metabolic stress – cell-based, panel, H9c2 and HL-1, H2O2, 2-deoxyglucose, ATP luminescence, SAR follow-up (AID 651642)
# measurement setup: H9c2/HL-1 cardiomyocyte 2-deoxyglucose damage, run 1, with 2-deoxyglucose
Collected IC50 values appear next to each entry.
API: value field is a number in µM; no unit string.

compound: COc1cc(-c2cc(C(=O)Nc3cccc(C#N)c3)c3ccccc3n2)cc(OC)c1OC
units: µM
IC50: 5.37
--
compound: COc1cc(-c2cc(C(=O)NCC(=O)Nc3ccc(C(C)=O)cc3)c3cc(C)ccc3n2)cc(OC)c1OC
units: µM
IC50: 2.65
--
compound: COc1ccc2c(c1OC)C(=O)N1c3ccccc3C(=O)N(Cc3cccc(F)c3)C21 (centres undefined)
units: µM
IC50: 3.49
--
compound: COc1ccc2nc(-c3cc(OC)c(OC)c(OC)c3)cc(C(=O)NCC(=O)Nc3ccc(C(C)=O)cc3)c2c1
units: µM
IC50: 2.44
--
compound: COc1cc(-c2cc(C(=O)NCC(=O)Nc3cccc(C(C)=O)c3)c3cccc(Cl)c3n2)cc(OC)c1OC
units: µM
IC50: 5.45

Now consider the entry below.
Entry COc1ccc2c(c1OC)C(=O)N1c3ccccc3C(=O)N(Cc3ccccc3Cl)C21 (centres undefined) : reported IC50 = ?
1.05
